Provide the reported GI50 of each item.
system: SW-620; test: NCI tumour cell line growth inhibition, 48 h
Calls of active or inactive are those of the source. Cut-off read from the data, not from the text of the source: active = GI50 up to about 1.1 µM and inactive = higher.

Solved entries (count: 4):
INSERT INTO measurements (compound_structure, obs_value) VALUES
  ('COC(=O)c1cccc2cccc(C(=O)Nc3ccc(Cl)cc3)c12', '11.4 µM (inactive)'),
  ('CC1=C(C(=O)NNC(=O)c2ccccc2)CC(C(=O)NNC(=O)c2ccccc2)=C(C)N1', '> 100 µM (inactive)'),
  ('CCN(CC)CCN1C(=O)c2c(c(-c3ccccc3)c3ccccc3c2-c2ccccc2)C1=O', '> 100 µM (inactive)'),
  ('CC1(C)CC2CC(CC(C)(C)C2=O)C1=O', '> 100 µM (inactive)');

Okay, now this molecule:
Query: Supply measured GI50 of `[N-]=[N+]=NC1=C(N=[N+]=[N-])c2cccc3cccc(c23)C1=O` in your reply.
Response: 57.7 µM (inactive)
